# GI50 per entry for SK-MEL-28 melanoma

structure.string	GI50
CCOC(=O)c1ccc(N(CCOS(C)(=O)=O)CCOS(C)(=O)=O)cc1C	> 100 µM
O=C(Nc1nccs1)c1cc2c(cc1Cl)Sc1nccn1S2(=O)=O	20 µM
COc1ccc(/C=C2\CN(Cc3cn(CCCNc4ccnc5cc(Cl)ccc45)nn3)C/C(=C\c3ccc(OC)c(OC)c3)C2=O)cc1OC	2.42 µM
S=c1nc2[nH]ncc2c(N/N=C/c2ccccc2)[nH]1	> 100 µM
COc1ccc(/C(C)=C(\c2ccc(Cl)cc2)c2ccc(OCCN3CCCC3)cc2)cc1F	3.13 µM
O=C1OCc2c1cc(F)cc2[N+](=O)[O-]	> 100 µM
